# %Inh listing for each entry below
# System: NEK10
# protocol.conditions: concentration: 1 μM, replicates: in singlicate; n = 1;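 further: KINOMEscan kinase panel screen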
Report as a plain number; the unit % is understood.

Guide cases for %Inh, answers given:
>>> reported_result("O=C(Nc1n[nH]c2cc(-c3ccccc3F)ccc12)C1CC1")
0
>>> reported_result("COc1cc2ncn(-c3cc(OCc4ccc(S(C)(=O)=O)cc4)c(C(N)=O)s3)c2cc1OC")
29
>>> reported_result("CCc1nc(-c2cccc(C)c2)c(-c2ccncc2)s1")
3
>>> reported_result("O=C(NCCNc1ccnc(Nc2ccc(F)cc2)n1)Nc1ccc2c(c1)OCO2")
0

# %Inh lookup, item CCS(=O)(=O)c1ccc(OC)c(Nc2ncc(-c3ccc(F)cc3)o2)c1.Cl
9

Quick one: COc1ccc(-n2cnc3c(N)ncnc32)cc1
40

Quick one: COc1cc2ncn(-c3cc(OCc4ccncc4Br)c(C(N)=O)s3)c2cc1OC
0

Quick one: C[C@@H]1CC[C@H](C(=O)NC2CCCCC2)CN1c1cc(-c2ccc3c(N)n[nH]c3c2)nc(N)n1
29

Quick one: FC(F)(F)c1ccc(-c2ncn(CCCN3CCOCC3)c2-c2ccncc2)cc1
4

Quick one: Nc1ncnc2c1ncn2-c1cccc(F)c1
53

====

# Tested on: ERBB3
# protocol.conditions: concentration: 1 μM, replicates: in singlicate; n = 1
property.measured: %Inh (%)
Report as a plain number; the unit % is understood.

Guide cases for %Inh, answers given:
>>> reported_result("COc1cc2ncn(-c3cc(OCc4ccncc4Br)c(C(N)=O)s3)c2cc1OC [GW854278]")
37
>>> reported_result("CCCNC(=O)Nc1ccc(Oc2ncnc3ccn(C)c23)cc1")
1
>>> reported_result("COc1cc(Nc2ccnc3ccc(C(F)(F)F)cc23)cc(OC)c1OC [GW577382]")
30
>>> reported_result("FC(F)(F)c1ccc(-c2ncn(CCCN3CCOCC3)c2-c2ccncc2)cc1 [SB-217780]")
0
>>> reported_result("O=C(Nc1n[nH]c2nc(-c3ccccc3)c(Br)cc12)C1CC1 [SB-708998]")
3

Now examine the next entry.
# %Inh lookup, item O=C(NCc1cccs1)c1cc(C(=O)c2c(Cl)cccc2Cl)c[nH]1 [GW823670]
0

====

# Test system: PRP4
# protocol.conditions: concentration: 1 μM, replicates: in singlicate; n = 1
# %Inh listing for each entry below
Report as a plain number; the unit % is understood.

>>> reported_result("CN1C(=O)C(Nc2ccccc2)=C(c2ccccc2)C1=O")
2
>>> reported_result("Cc1ccc(Oc2ccc(Nc3ncnc4cc[nH]c34)cc2C)cn1")
46
>>> reported_result("COc1cc2ncn(-c3cc(OCc4ccncc4Br)c(C(N)=O)s3)c2cc1OC")
0
>>> reported_result("CN(C)c1cc(-c2ccc3c(N)n[nH]c3c2)nc(N)n1")
6
>>> reported_result("COC(=O)c1c(-c2ccccc2)c2cc(C)ccc2c(=O)n1Cc1ccccc1")
4
>>> reported_result("O=C1NC(=O)C(c2ccccc2)=C1Nc1cccc(O)c1")
0

# %Inh lookup, item CCc1nc(-c2cccc(C)c2)c(-c2ccncc2)s1
26

====

# Test system: MAP3K2
# protocol.conditions: concentration: 1 μM, replicates: in singlicate; n = 1
# %Inh listing for each entry below
Report as a plain number; the unit % is understood.

>>> reported_result("CCC(=O)c1c(-c2ccccc2)c2cc(Cl)ccc2c(=O)n1Cc1cc(S(C)(=O)=O)n(CCC(C)(C)O)n1")
21
>>> reported_result("COc1cc(Nc2ccnc3ccc(C(F)(F)F)cc23)cc(OC)c1OC")
0
>>> reported_result("COc1ccc(Nc2nccc(N3CCC(NS(=O)(=O)c4ccc(NC(C)=O)cc4)C3)n2)cc1 (centres unmarked)")
0
>>> reported_result("Cl.c1ccc(Cn2cnc3cc(Nc4ncnc5ccccc45)ccc32)cc1")
0
>>> reported_result("Cc1c(Cn2c(C)nn3c(=O)cc(N4CCO[C@H](C)C4)nc23)cccc1C(F)(F)F")
2

# %Inh lookup, item CCC(=O)c1c(-c2ccccc2)c2cc(Cl)ccc2c(=O)n1Cc1cc(C(=O)NC2CC2)n(C)n1
10

Quick one: FC(F)(F)c1ccc(-c2ncn(CCCN3CCOCC3)c2-c2ccncc2)cc1
8

Quick one: COc1cc2ncn(-c3cc(OCc4ccncc4)c(C(N)=O)s3)c2cc1OC
0
